# Run Description: self-splicing fitness, log relative to wild type (ln ratio); higher = more splicing; Tetrahymena group I intron in knt gene, E. coli kanamycin selection, DiMSum; sequences stand for … in CUCUCU…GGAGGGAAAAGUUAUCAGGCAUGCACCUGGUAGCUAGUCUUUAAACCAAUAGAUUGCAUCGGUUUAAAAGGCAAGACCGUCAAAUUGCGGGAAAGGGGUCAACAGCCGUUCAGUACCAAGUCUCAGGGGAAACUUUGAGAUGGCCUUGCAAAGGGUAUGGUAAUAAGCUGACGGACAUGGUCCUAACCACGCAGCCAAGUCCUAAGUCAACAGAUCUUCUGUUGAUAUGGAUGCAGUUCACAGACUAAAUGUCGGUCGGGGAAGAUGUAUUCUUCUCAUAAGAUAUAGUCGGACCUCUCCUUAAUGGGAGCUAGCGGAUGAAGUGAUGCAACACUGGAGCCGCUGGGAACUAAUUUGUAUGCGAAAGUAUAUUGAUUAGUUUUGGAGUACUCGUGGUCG;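 also: selection with 25 µg/mL kanamycin versus none on LB agar overnight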
# Test Parameters: 30 °C
Label rule, in plain words: self-splicing fitness (ln) of -3 and up is Satisfied, under -3 is Not satisfied.

INSERT INTO assay_data (seq_string, label) VALUES
  ('UAGUAGCAAUAUUACGUGUU', 'Not satisfied'),
  ('CUAUAGCAAUAUUACGCGUU', 'Not satisfied');

Could you tell me if the measured self-splicing fitness (ln) of UGACAGCAAUAUUACGGAUU reaches -3 or more?
Satisfied

Could you tell me if the measured self-splicing fitness (ln) of CCAGAGCAAUAUUACGUCUA reaches -3 or more?
Satisfied

Could you tell me if the measured self-splicing fitness (ln) of CCGCAGCAAUAUUACGUUCU reaches -3 or more?
Not satisfied

Could you tell me if the measured self-splicing fitness (ln) of GGGAAGCAAUAUUACGAGCU reaches -3 or more?
Satisfied

----------
Give self-splicing fitness (ln) for every item shown.
# Run Description: self-splicing fitness, log relative to wild type (ln ratio); higher = more splicing; Tetrahymena group I intron in knt gene, E. coli kanamycin selection, DiMSum; sequences stand for … in CUCUCU…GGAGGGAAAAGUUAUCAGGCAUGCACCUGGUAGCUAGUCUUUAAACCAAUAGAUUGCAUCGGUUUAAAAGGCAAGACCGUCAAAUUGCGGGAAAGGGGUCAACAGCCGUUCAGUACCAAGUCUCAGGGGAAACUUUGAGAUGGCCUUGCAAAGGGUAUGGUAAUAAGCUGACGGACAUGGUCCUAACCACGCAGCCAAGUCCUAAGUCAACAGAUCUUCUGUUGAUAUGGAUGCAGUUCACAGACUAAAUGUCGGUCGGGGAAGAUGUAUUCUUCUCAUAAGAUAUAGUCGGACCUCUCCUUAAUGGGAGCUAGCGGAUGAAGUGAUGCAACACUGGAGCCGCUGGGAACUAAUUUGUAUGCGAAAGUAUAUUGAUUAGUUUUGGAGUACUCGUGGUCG
# Test Parameters: 30 °C

Guide cases for self-splicing fitness (ln), answers given:
INSERT INTO results (seq_string, observed) VALUES
  ('UUGGAGCAAUAUUACGCAGG', -2.96),
  ('CCGGAGCAAUAUUACGCUAG', -3.07),
  ('AGCUAGCAAUAUUACGAAAA', -3.04);

# batch size: 3; output self-splicing fitness (ln) per entry
1. GUUAAGCAAUAUUACGCCGC
2. ACGGAGCAAUAUUACGCGAA
3. CAGCAGCAAUAUUACGAUAA

1. -3.02
2. -3.05
3. -3.08

Item: UUUAAGCAAUAUUACGGAGG | self-splicing fitness (ln): -2.95

Values from the supplement of paper PMC7877785
